Reported microsomal CLint at 0.5 μM values for a set of compounds
- Assay notes: Determination of the microsomal half-life / microsomal clearance
- Format: in vitro ADME
- Assay setup: pH 7.4; human liver microsomes, 0.5 μM test substance, 0.25 mg protein/ml, NADPH, 37° C.; read-out: Human mCl (mikrosomal clearance)

Recorded microsomal CLint at 0.5 μM, per entry:
CC(C)(C)c1nc(C2CCC2)cc(N2CCN(CC[C@H]3CC[C@H](NC(=O)[C@H]4C[C@H](O)C4)CC3)CC2)n1.O=C(O)C(F)(F)F | < 20 µL/min/mg
CC(C)(C)c1cc(N2CCN(CC[C@H]3CC[C@@H](NC(=O)[C@H]4CC[C@H](O)CC4)CC3)CC2)nc(C(C)(C)C)n1 | 20 to 120 µL/min/mg
CC(C)(C)c1nc(C2CCCC2)cc(N2CCN(CC[C@H]3CC[C@H](NC(=O)[C@H]4CC[C@H](O)CC4)CC3)CC2)n1 | 20 to 120 µL/min/mg
COCCc1cc(N2CCN(CC[C@H]3CC[C@H](NC(=O)[C@H]4CC[C@@H](O)CC4)CC3)CC2)nc(C(C)(C)C)n1 | > 120 µL/min/mg
CC(C)(C)c1nc(N2CCN(CC[C@H]3CC[C@@H](NC(=O)[C@H]4CC[C@H](O)CC4)CC3)CC2)cc(C(F)(F)F)n1 | 20 to 120 µL/min/mg
COCCc1cc(N2CCN(CC[C@H]3CC[C@H](NC(=O)[C@H]4CC[C@H](O)CC4)CC3)C[C@H]2C)nc(C(C)(C)C)n1 | 20 to 120 µL/min/mg

Q: // microsomal CLint at 0.5 μM lookup, key: COCCc1cc(N2CCN(CC[C@H]3CC[C@@H](NC(=O)C4CC(O)(C(F)(F)F)C4)CC3)CC2)nc(C(C)(C)C)n1 (relative stereo)
Result: < 20 µL/min/mg

Q: Further, for `CC(C)(C)c1nc(C2CCC2)cc(N2CCN(CC[C@H]3C[C@H](NC(=O)[C@H]4CC[C@H](O)CC4)C3)CC2)n1` ?
Result: 20 to 120 µL/min/mg

Q: Quick one: CC(C)c1cc(N2CCN(CCC3CCC(NC(=O)C4CCC(O)CC4)CC3)CC2)nc(C(C)(C)C)n1 (centres unmarked)
Result: 20 to 120 µL/min/mg

Q: Another compound to check: COCCc1cc(N2CCN(CC[C@H]3C[C@H](NC(=O)C4CCC(O)CC4)C3)CC2)nc(C(C)(C)C)n1 (relative stereo)
Result: 20 to 120 µL/min/mg

Q: `COCCc1cc(N2CCN(CC[C@H]3CC[C@@H](NC(=O)[C@H]4CC[C@@H](O)CC4)CC3)CC2)nc(C(C)(C)C)n1` ?
Result: > 120 µL/min/mg

Q: Another compound: `CC(C)(C)c1nc(C2CCC2)cc(N2CCN(CC[C@H]3C[C@H](NC(=O)[C@H]4CC[C@@H](O)CC4)C3)CC2)n1.O=C(O)C(F)(F)F`
Result: > 120 µL/min/mg

Q: Try `CC(C)(C)c1cc(N2CCN(CC[C@H]3CC[C@H](NC(=O)[C@H]4CC[C@H](O)CC4)CC3)CC2)nc(C(C)(C)C)n1` next.
Result: 20 to 120 µL/min/mg

Q: `CC(C)(C)c1nc(C2CCC2)cc(N2CCN(CC[C@H]3C[C@H](NC(=O)[C@H]4C[C@H](O)C4)C3)CC2)n1.O=C(O)C(F)(F)F` , same question.
Result: < 20 µL/min/mg

Q: Next: `COCCc1cc(N2CCN(CC[C@H]3CC[C@@H](NC(=O)[C@H]4CC[C@H](O)CC4)CC3)CC2)nc(C(C)(C)C)n1`
Result: 20 to 120 µL/min/mg

Q: Now this one: CC(C)(C)c1nc(N2CCN(CCC3CCC(NC(=O)C4CCC(O)CC4)CC3)CC2)cc(C2(C)CC2)n1 (centres unmarked)
Result: 20 to 120 µL/min/mg

Q: `CC(C)(C)c1nc(C2CCC2)cc(N2CCN(CC[C@H]3CC[C@H](NC(=O)[C@H]4CC[C@H](O)CC4)CC3)CC2)n1` ?
Result: 20 to 120 µL/min/mg

Q: Now the compound `COCCc1cc(N2CCN(CC[C@H]3C[C@@H](NC(=O)[C@H]4CC[C@H](O)CC4)C3)CC2)nc(C(C)(C)C)n1.O=C(O)C(F)(F)F`
Result: 20 to 120 µL/min/mg

Q: Okay, and `CC(C)c1cc(N2CCN(CC[C@H]3CC[C@H](NC(=O)[C@H]4CC[C@H](O)CC4)CC3)CC2)nc(C(C)(C)C)n1` ?
Result: 20 to 120 µL/min/mg
